# Test system: MDA-MB-231
# Assay method text: Antiproliferative activity against human MDA-MB-231 cells assessed as inhibition of cell proliferation by MTT assay
Value kind: IC50 (µM)
The reply should contain only the number, in µM.

Some solved cases for reference:
> print(dat)
                                 cpd.smiles  value.kind  reading
1  CCOC(=O)C1=CN(C(=O)c2cc(OC)c(OC)c(OC)c2)C=C(C(=O)OCC)C1c1ccc(S(C)(=O)=O)cc1        IC50     14.2
2  CCOC(=O)C1=CN(C(=O)c2ccc(OC)c(OC)c2)C=C(C(=O)OCC)C1c1ccc(S(C)(=O)=O)cc1        IC50     15.2
3  CCOC(=O)C1=CN(C(=O)c2cc(OC)c(OC)c(OC)c2)C=C(C(=O)OCC)C1c1cnc(Cl)c(Cl)c1        IC50     5.78

As a next step, examine the molecule that follows.
Which IC50 is listed for `CCOC(=O)C1=CN(C(=O)c2cc(OC)c(OC)c(OC)c2)C=C(C(=O)OCC)C1c1ccccc1` ?
5.23
